- experimental.protocol: Biodistribution in sham-operated rats with and without excess cold compound
- Type: in vivo
- test.parameters: male, Sprague Dawley, rat, carcass, iv, 3 MBq, total radioactivity, 15 days post-op, 1 hour post-injection, +100-fold excess cold Compound 8, read-out: Activity in Carcass, Mean
Numbered stars: 1 amine (or outer) side, 2 acyl side, 3 side chain; on linkers, the order of the positions; unused ones are H or OH. Bridge positions count the residues as written; N and C are the ends. Side chains are listed from the residue outwards. Peptide text beside a SMILES is read from it. * marks the point of attachment. X1 = C/C(=N\O)C(C)(C)NCCC(CCNC(C)(C)/C(C)=N/O)CCN*; Glutaryl = O=C(CCCC(=O)[*:2])[*:1]; X2 = NC(=O)COCC(=O)NCCOCCOCCOCCN*
measured.endpoint: tissue uptake dose at 1 h
Answer by giving the amount and then stating its unit.

Note to self: tissue uptake dose at 1 h recorded for C/C(=N\O)C(C)(C)NCCC(CCNC(=O)CCCC(=O)NCCCC[C@@H]1NC(=O)CSC[C@@H](C(=O)NCCOCCOCCOCCNC(=O)COCC(N)=O)NC(=O)[C@H](Cc2ccccc2)NC(=O)[C@@H]2CSSC[C@H](NC1=O)C(=O)N[C@@H](CCCNC(=N)N)C(=O)NCC(=O)N[C@@H](CC(=O)O)C(=O)N2)CCNC(C)(C)/C(C)=N/O (stereo partly shown) [Compound 8] ({CH2CO}-K([Glutaryl-X1])CRGDCFC-X2; disulfide 2-6; thioether N-8) was 9.32 %ID

---

- experimental.protocol: Biodistribution in sham-operated rats with and without excess cold compound
- Type: in vivo
- test.parameters: male, Sprague Dawley, rat, kidneys, iv, total radioactivity, 15 days post-op, 1 hour post-injection, +100-fold excess cold Compound 8, read-out: Activity in Kidneys, Mean
Numbered stars: 1 amine (or outer) side, 2 acyl side, 3 side chain; on linkers, the order of the positions; unused ones are H or OH. Bridge positions count the residues as written; N and C are the ends. Side chains are listed from the residue outwards. Peptide text beside a SMILES is read from it. * marks the point of attachment. X1 = C/C(=N\O)C(C)(C)NCCC(CCNC(C)(C)/C(C)=N/O)CCN*; Glutaryl = O=C(CCCC(=O)[*:2])[*:1]; X2 = NC(=O)COCC(=O)NCCOCCOCCOCCN*
measured.endpoint: tissue uptake dose at 1 h (%ID)
Report the value in %ID with no unit label.

Note to self: tissue uptake dose at 1 h recorded for C/C(=N\O)C(C)(C)NCCC(CCNC(=O)CCCC(=O)NCCCC[C@@H]1NC(=O)CSC[C@@H](C(=O)NCCOCCOCCOCCNC(=O)COCC(N)=O)NC(=O)[C@H](Cc2ccccc2)NC(=O)[C@@H]2CSSC[C@H](NC1=O)C(=O)N[C@@H](CCCNC(=N)N)C(=O)NCC(=O)N[C@@H](CC(=O)O)C(=O)N2)CCNC(C)(C)/C(C)=N/O (stereo partly shown) [Compound 8] ({CH2CO}-K([Glutaryl-X1])CRGDCFC-X2; disulfide 2-6; thioether N-8) was 4.13

---

- experimental.protocol: Biodistribution in sham-operated rats with and without excess cold compound
- Format: in vivo
- test.parameters: male, Sprague Dawley, rat, bone, iv, 3 MBq, total radioactivity, 15 days post-op, 1 hour post-injection, no excess, read-out: Activity in Bone, Mean
Numbered stars: 1 amine (or outer) side, 2 acyl side, 3 side chain; on linkers, the order of the positions; unused ones are H or OH. Bridge positions count the residues as written; N and C are the ends. Side chains are listed from the residue outwards. Peptide text beside a SMILES is read from it. * marks the point of attachment. X1 = C/C(=N\O)C(C)(C)NCCC(CCNC(C)(C)/C(C)=N/O)CCN*; Glutaryl = O=C(CCCC(=O)[*:2])[*:1]; X2 = NC(=O)COCC(=O)NCCOCCOCCOCCN*
measured.endpoint: tissue uptake dose at 1 h (%ID)
Report the value in %ID with no unit label.

Note to self: tissue uptake dose at 1 h recorded for C/C(=N\O)C(C)(C)NCCC(CCNC(=O)CCCC(=O)NCCCC[C@@H]1NC(=O)CSC[C@@H](C(=O)NCCOCCOCCOCCNC(=O)COCC(N)=O)NC(=O)[C@H](Cc2ccccc2)NC(=O)[C@@H]2CSSC[C@H](NC1=O)C(=O)N[C@@H](CCCNC(=N)N)C(=O)NCC(=O)N[C@@H](CC(=O)O)C(=O)N2)CCNC(C)(C)/C(C)=N/O (stereo partly shown) [Compound 8] ({CH2CO}-K([Glutaryl-X1])CRGDCFC-X2; disulfide 2-6; thioether N-8) was 3.1

# credit: patent US8834843B2
